value kind: IC50

Result for COc1cc(O)c2c(c1)CCCC(=O)C(=O)C(O)CCC[C@H](C)OC2=O (stereo partly specified) , tested on Tyrosine-protein kinase JAK2 (Homo sapiens, UniProt O60674), IC50: > 10 µM

* * *

value kind: IC50

Result for COc1cc(O)c2c(c1)CCCC(=O)C(=O)C(O)CCC[C@H](C)OC2=O (stereo partly specified) , tested on Serine/threonine-protein kinase N1 (Homo sapiens), IC50: > 10 µM

* * *

value kind: IC50

Result for COc1cc(O)c2c(c1)CCCC(=O)C(=O)C(O)CCC[C@H](C)OC2=O (stereo partly drawn) [L-783277] , tested on Receptor tyrosine-protein kinase erbB-2 (Homo sapiens, UniProt P04626), IC50: > 10 µM
